targetOfAssay: T1, recombinant human Siglec-15 protein (Homo sapiens, UniProt Q6ZMC9)
T1 construct: purchased Bonopusbio CW70-50 ug
T1 sequence (Q6ZMC9 20-263 limits assumed): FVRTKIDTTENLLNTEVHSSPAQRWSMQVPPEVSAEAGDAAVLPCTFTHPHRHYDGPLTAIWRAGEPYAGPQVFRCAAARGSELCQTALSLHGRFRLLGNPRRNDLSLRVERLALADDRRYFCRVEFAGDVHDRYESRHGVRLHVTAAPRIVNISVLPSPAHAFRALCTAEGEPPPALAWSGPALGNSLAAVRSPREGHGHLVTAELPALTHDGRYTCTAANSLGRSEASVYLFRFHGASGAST
experimentalProtocol: BIACORE surface plasmon resonance binding affinity
testSettings: SPR; antibody as ligand, human Siglec-15 as analyte; 1:1 Langmuir model
recordedMetric: kd (s⁻¹)
Numeric only. Scale: s⁻¹

Field: example entries. Status: answers known.
molecule: S15B1-VH1 + VL1: humanized S15B1 antibody, humanized VH1 (SEQ ID NO: 103) with humanized VL1 (antibody, V domains shown) VH: QVQLVQSGAEVKKPGASVKVSCKASGYAFSSSWMNWVRQAPGQGLEWIGRIYPGHGETNYNGKFKDRVTMTADTSTSTVYMELSSLRSEDTAVYFCARVDNSDPYYFDYWGQGTTVTVSS VL: DIVLTQSPASLAVSPGQRATITCRASKSVSTSGYSYMHWYQQKPGQPPKLLIYLASNLESGVPARFSGSGSGTDFTLTINPVEAEDTANYYCQHGRELPFTFGGGTKLEIK
kd / s⁻¹: 0.000455
//
molecule: S15B1-VH2 + VL1: humanized S15B1 antibody, humanized VH2 with humanized VL1 (antibody, V domains shown) VH: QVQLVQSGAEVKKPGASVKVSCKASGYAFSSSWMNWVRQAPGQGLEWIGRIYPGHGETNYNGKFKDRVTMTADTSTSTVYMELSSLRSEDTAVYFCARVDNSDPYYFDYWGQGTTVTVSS VL: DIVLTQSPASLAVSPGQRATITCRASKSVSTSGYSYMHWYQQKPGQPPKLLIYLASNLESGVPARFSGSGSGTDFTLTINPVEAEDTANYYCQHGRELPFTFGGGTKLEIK
kd / s⁻¹: 0.000473

Incoming: Name the recorded kd for S15B1-VH4 + VL2: humanized S15B1 antibody, humanized VH4 with humanized VL2 (antibody, V domains shown) VH: QVQLVQSGAEVKKPGASVKVSCKASGYAFSSSWMNWVKQAPGQGLEWIGRIYPGHGETNYNGKFKDRATMTADKSTSTVYMELSSLRSEDTAVYFCARVDNSDPYYFDYWGQGTTVTVSS VL: DIVLTQSPASLAVSPGQRATITCRASKSVSTSGYSYMHWYQQKPGQPPKLLIYLASNLESGVPARFSGSGSGTDFTLTINPVEAEDTATYYCQHGRELPFTFGGGTKLEIK .
Outgoing: 0.000234
